Values from patent US20250263426A1

pIC50: −log10 of the molar value.
Measured pIC50 (PDE4D2 (Homo sapiens (Human)))

pIC50 lookup needed for CCOc1cnc(C2=CCN(c3nc4c(c(NC(C)(C)COC(N)=O)n3)[S@+]([O-])CC4)CC2)nc1 , thanks. > 8.00

pIC50 lookup needed for NC(=O)OCC1(Nc2nc(N3CC=C(c4nc5ccccc5o4)CC3)nc3c2[S@+]([O-])CC3)CCC1 , thanks. > 8.00

pIC50 lookup needed for CN1C[C@@H](Nc2nc(N3C[C@H]4CN(c5ccc6c(c5)CC6)C[C@H]4C3)nc3c2[S@+]([O-])CC3)CCC1=O , thanks. 7.00 to 7.30

pIC50 lookup needed for C#Cc1ccc(C2=CCN(c3nc4c(c(NC5([C@H](C)O)CCC5)n3)[S@@+]([O-])CC4)CC2)nc1 , thanks. > 8.00

pIC50 lookup needed for C#Cc1cnc(N2CCN(c3nc4c(c(NC5(COC(N)=O)CCC5)n3)[S@+]([O-])CC4)CC2)nc1 , thanks. 7.30 to 8.00

pIC50 lookup needed for C#Cc1cnc(C2=CCN(c3nc4c(c(Nc5cccc(F)c5)n3)[S@+]([O-])CC4)CC2)nc1 , thanks. > 8.00

pIC50 lookup needed for COC(=O)NCC(C)(C)Nc1nc(N2C[C@@H]3CC(c4ncc5c(n4)CC5)=C[C@@H]3C2)nc2c1[S@+]([O-])CC2 , thanks. > 8.00

pIC50 lookup needed for NC(=O)OCC1(Nc2nc(N3C[C@H]4CN(c5ccc6c(c5)CC6)C[C@H]4C3)nc3c2[S@+]([O-])CC3)CCC1 , thanks. 7.30 to 8.00

pIC50 lookup needed for CC(C)(COC(N)=O)Nc1nc(N2CC=C(c3ncc(C4CC4)cn3)CC2)nc2c1[S@+]([O-])CC2 , thanks. > 8.00

pIC50 lookup needed for CC(C)(CC#N)Nc1nc(N2CC=C(c3ncc(C4CC4)cn3)CC2)nc2c1[S@+]([O-])CC2 , thanks. > 8.00

pIC50 lookup needed for CC#Cc1cnc2c(c1)OC[C@H]1CN(c3nc4c(c(NC(C)(C)COC(N)=O)n3)[S@+]([O-])CC4)CCN21 , thanks. 7.00 to 7.30

pIC50 lookup needed for C#Cc1cnc(C2=CCN(c3nc4c(c(NC5(COC(N)=O)CCC5)n3)[S@+]([O-])CC4)CC2)nc1 , thanks. > 8.00

pIC50 lookup needed for COC(=O)NCC(C)(C)Nc1nc(N2CC=C(c3ncc(C4CC4)cn3)CC2)nc2c1[S@+]([O-])CC2 , thanks. 7.30 to 8.00

pIC50 lookup needed for CC#Cc1cnc(C2=CCN(c3nc4c(c(NC5(COC(F)F)CCC5)n3)[S@@+]([O-])CC4)CC2)nc1 , thanks. 7.30 to 8.00
